- Test system: HepG2
- TEST_METHOD_NOTES: cytotoxicity call (relative viability < 0.9)
- COND: 10 µM
The whole screen tested about 39,000 compounds, of which about 3,300 (8.5%) were called active. Shown is part of a subset that was picked to be rich in actives.
READOUT_LABEL: cytotoxicity call

- COMPOUND_STRING: "CC=NN(C)C=O"
  TARGET_OR_TEST_SYSTEM: "HepG2"
  MEASURED_VALUE: "inactive"
- COMPOUND_STRING: "O=C(N/N=C/c1ccc(B(O)O)cc1)c1ccccc1O"
  TARGET_OR_TEST_SYSTEM: "HepG2"
  MEASURED_VALUE: "inactive"
- COMPOUND_STRING: "Cc1noc(C)c1S(=O)(=O)N(C)C[C@@H]1OCc2cnnn2CCCC(=O)N([C@@H](C)CO)C[C@H]1C"
  TARGET_OR_TEST_SYSTEM: "HepG2"
  MEASURED_VALUE: "inactive"
- COMPOUND_STRING: "CCCNC(=O)N1C[C@]2(CCN(CC2)S(=O)(=O)c2ccccc2)c2c(n(c3cc(ccc23)OC)C)[C@H]1CO"
  TARGET_OR_TEST_SYSTEM: "HepG2"
  MEASURED_VALUE: "inactive"
- COMPOUND_STRING: "COc1cccc(NC(=O)N[C@@H]2CC[C@@H](CC(=O)N3CCN(C)CC3)O[C@@H]2CO)c1"
  TARGET_OR_TEST_SYSTEM: "HepG2"
  MEASURED_VALUE: "active"
- COMPOUND_STRING: "Cc1noc(C)c1NC(=O)Nc1ccc2c(c1)C(=O)N([C@@H](C)CO)C[C@@H](C)[C@@H](CN(C)Cc1ccc3c(c1)OCO3)OCCCC[C@@H](C)O2"
  TARGET_OR_TEST_SYSTEM: "HepG2"
  MEASURED_VALUE: "inactive"
- COMPOUND_STRING: "COc1ccc(NC(=O)Nc2ccc3c(c2)C(=O)N([C@H](C)CO)C[C@@H](C)[C@@H](CN(C)C(=O)c2ccccc2)OCCCC[C@H](C)O3)cc1"
  TARGET_OR_TEST_SYSTEM: "HepG2"
  MEASURED_VALUE: "inactive"
- COMPOUND_STRING: "C[C@@H]1CN([C@H](C)CO)C(=O)c2cc(NS(C)(=O)=O)ccc2O[C@@H]1CN(C)C(=O)Nc1ccc2c(c1)OCO2"
  TARGET_OR_TEST_SYSTEM: "HepG2"
  MEASURED_VALUE: "inactive"
- COMPOUND_STRING: "C[C@@H]1CN([C@H](C)CO)C(=O)c2c(c3ccccc3n2C)-c2ccccc2CO[C@H]1CN(C)C(=O)[C@H](C)c1ccccc1"
  TARGET_OR_TEST_SYSTEM: "HepG2"
  MEASURED_VALUE: "inactive"
- COMPOUND_STRING: "C[C@H]1CN([C@@H](C)CO)C(=O)c2cc(NC(=O)Nc3ccc4c(c3)OCO4)ccc2O[C@@H]1CN(C)C(=O)Nc1cccc2ccccc12"
  TARGET_OR_TEST_SYSTEM: "HepG2"
  MEASURED_VALUE: "inactive"
- COMPOUND_STRING: "CCOC(=O)c1nnn(-c2nonc2N)c1CN1CCSCC1"
  TARGET_OR_TEST_SYSTEM: "HepG2"
  MEASURED_VALUE: "inactive"
- COMPOUND_STRING: "C[C@@H]1CN([C@@H](C)CO)C(=O)c2cc(NC(=O)Nc3ccc(C(F)(F)F)cc3)ccc2O[C@@H](C)CCCCO[C@H]1CN(C)Cc1ccc(C(F)(F)F)cc1"
  TARGET_OR_TEST_SYSTEM: "HepG2"
  MEASURED_VALUE: "active"
- COMPOUND_STRING: "CCCNC(=O)N1C[C@]2(CN(C2)S(=O)(=O)c2cccc(c2)OC)c2c(n(c3cc(ccc23)OC)C)[C@@H]1CO"
  TARGET_OR_TEST_SYSTEM: "HepG2"
  MEASURED_VALUE: "inactive"
- COMPOUND_STRING: "C[C@@H]1CCCCO[C@H](CN(C)Cc2ccc(C(F)(F)F)cc2)[C@H](C)CN([C@@H](C)CO)C(=O)c2cc(NC(=O)Nc3ccc(C(F)(F)F)cc3)ccc2O1"
  TARGET_OR_TEST_SYSTEM: "HepG2"
  MEASURED_VALUE: "active"
- COMPOUND_STRING: "COc1ccc(S(=O)(=O)N(C)C[C@H]2OCCCC[C@H](C)Oc3ccc(NC(=O)Nc4cccc5ccccc45)cc3C(=O)N([C@@H](C)CO)C[C@H]2C)cc1"
  TARGET_OR_TEST_SYSTEM: "HepG2"
  MEASURED_VALUE: "inactive"
- COMPOUND_STRING: "CCCNC(=O)N1C[C@]2(CCN(CC2)S(=O)(=O)c2ccc(cc2)OC)c2c(n(c3cc(ccc23)OC)C)[C@H]1CO"
  TARGET_OR_TEST_SYSTEM: "HepG2"
  MEASURED_VALUE: "inactive"
